B1: BRF1 (parent)
chain: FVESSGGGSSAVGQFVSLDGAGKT

variants of: B1; test: protein stability index of a GFP-peptide fusion (GPS, HEK-293T) (PSI 1-6); higher = more stable; settings: c terminus: a fixed tail appended;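 also: lentivirally expressed fusions sorted by FACS into six bins by GFP to DsRed ratio, PSI derived from sequencing read proportions per bin multiplied by bin number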
Please provide measured protein stability index for the entries that follow.
Simply state the number, no unit and no words.

Task: Which protein stability index value belongs to FVESSGGGHSAVGQFVSLDGAGKT [S9H] ?
Output: 2.17

Task: Which protein stability index value belongs to FVESSGGGSSAVQQFVSLDGAGKT [G13Q] ?
Output: 1.93

Task: Which protein stability index value belongs to FVESSFGGSSAVGQFVSLDGAGKT [G6F] ?
Output: 1.45

Task: Which protein stability index value belongs to FVESSGGGSSAVGQFVMLDGAGKT [S17M] ?
Output: 1.57

Task: Which protein stability index value belongs to FVEWSGGGSSAVGQFVSLDGAGKT [S4W] ?
Output: 2.63

Task: Which protein stability index value belongs to FVESSGGGSSAVGQLVSLDGAGKT [F15L] ?
Output: 2.27

Task: Which protein stability index value belongs to FVESSGGGSSAVGQFVSLDGYGKT [A21Y] ?
Output: 1.91

Task: Which protein stability index value belongs to FVESSGGGSSAVGQFMSLDGAGKT [V16M] ?
Output: 2.96

Task: Which protein stability index value belongs to FVESSGCGSSAVGQFVSLDGAGKT [G7C] ?
Output: 2.31

Task: Which protein stability index value belongs to FCESSGGGSSAVGQFVSLDGAGKT [V2C] ?
Output: 3.96

Task: Which protein stability index value belongs to FVESSGGGSSAVPQFVSLDGAGKT [G13P] ?
Output: 2.18

Task: Which protein stability index value belongs to FVESSGLGSSAVGQFVSLDGAGKT [G7L] ?
Output: 1.52

Task: Which protein stability index value belongs to GVESSGGGSSAVGQFVSLDGAGKT [F1G] ?
Output: 5.26

Task: Which protein stability index value belongs to FVESTGGGSSAVGQFVSLDGAGKT [S5T] ?
Output: 2.62

Task: Which protein stability index value belongs to FGESSGGGSSAVGQFVSLDGAGKT [V2G] ?
Output: 4.36

Task: Which protein stability index value belongs to FVESSGGGSSAVGQFVSRDGAGKT [L18R] ?
Output: 2

Task: Which protein stability index value belongs to FVESSGGGSSAVGQFVSLKGAGKT [D19K] ?
Output: 2.55

Task: Which protein stability index value belongs to TVESSGGGSSAVGQFVSLDGAGKT [F1T] ?
Output: 5.09

Task: Which protein stability index value belongs to FVESSGGGSSAVGQFVSLDGRGKT [A21R] ?
Output: 2.66

Task: Which protein stability index value belongs to FVESSGGGSSAVGQFRSLDGAGKT [V16R] ?
Output: 2.35

Task: Which protein stability index value belongs to FVESSGGGSKAVGQFVSLDGAGKT [S10K] ?
Output: 1.42

Task: Which protein stability index value belongs to FVESSGGGSSAVGQFVSLDGAQKT [G22Q] ?
Output: 2.26
